Biological target: human α2C receptor (Homo sapiens)
Construct: expressed in transfected cells; host or cells: CHO cells, also recombinantly expressing chimeric G protein Gαqi3 and mitochondrial obelin (mtOb)
Sequence (P18825 whole entry): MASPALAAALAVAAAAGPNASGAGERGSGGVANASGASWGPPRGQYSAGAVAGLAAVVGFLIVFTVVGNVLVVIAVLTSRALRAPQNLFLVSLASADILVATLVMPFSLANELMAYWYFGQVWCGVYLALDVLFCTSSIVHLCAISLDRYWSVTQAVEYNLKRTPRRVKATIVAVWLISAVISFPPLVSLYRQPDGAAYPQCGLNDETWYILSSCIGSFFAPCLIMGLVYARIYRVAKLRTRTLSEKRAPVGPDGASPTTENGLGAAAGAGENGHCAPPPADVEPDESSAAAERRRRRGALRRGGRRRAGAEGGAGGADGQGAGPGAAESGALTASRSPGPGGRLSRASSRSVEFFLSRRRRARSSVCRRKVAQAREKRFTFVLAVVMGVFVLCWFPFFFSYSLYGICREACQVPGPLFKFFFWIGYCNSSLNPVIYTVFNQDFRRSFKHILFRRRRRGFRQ
Assay: Antagonism against the adrenoreceptor α2C (luminescence, recombinant CHO cell line)
Format: cell-based
Structures can show the parent of a compound that is named as a salt.
property: IC50 (nM)
The figure you give is taken to be in nM; do not add the unit.

Report value only: IC50, human α2C receptor (Homo sapiens), CNCC1(c2ccc(C(=O)N3CCC(N4CCCC(C)C4)CC3)cc2)CCC1 (stereo not shown) [Example 68, trifluoroacetic acid salt]
4

----------
Molecular target: human α2C receptor (Homo sapiens)
Construct: expressed in transfected cells; host or cells: CHO cells, also recombinantly expressing chimeric G protein Gαqi3 and mitochondrial obelin (mtOb)
Test: Antagonism against the adrenoreceptor α2C (luminescence, recombinant CHO cell line)
Format: cell-based
Conditions: antagonism against adrenoreceptor α2C; noradrenaline 20 nM; tested up to 10 μM; read-out: IC50
Counter-ions that a name gives are not always drawn.
pIC50 by entry:
Scale note: pIC50 = -log10(concentration in M).

[
  {
    "compound": "COCC1CCCN(C2CCN(C(=O)c3ccc(C(=O)N(C)Cc4c(F)cccc4F)cc3)CC2)C1 (stereo not shown) [Example 96, trifluoroacetic acid salt]",
    "pIC50": 8.00
  },
  {
    "compound": "CC(C)(C)OCC1CCCN(C2CCN(C(=O)c3ccc(C(C)(C)C)cc3)CC2)C1 (stereo not shown) [Example 107]",
    "pIC50": 7.05
  },
  {
    "compound": "CC1CCCN(C2CCN(C(=O)c3ccc(C(=O)NC(C)(C)C)cc3F)CC2)C1 (stereo not shown) [Example 102, hydrochloride]",
    "pIC50": 7.17
  },
  {
    "compound": "COCCc1noc(C2CCCN(C3CCN(C(=O)c4ccc(C(C)(C)C)cc4)CC3)C2)n1 (stereo not shown) [Example 109]",
    "pIC50": 6.98
  },
  {
    "compound": "CCOC(=O)C1CCCN(C2CCN(C(=O)c3ccc(C(C)(C)C(=O)OCC)cc3)CC2)C1 (stereo not shown) [Example 29, trifluoroacetic acid salt]",
    "pIC50": 7.54
  }
]

GET pIC50 | system: human α2C receptor (Homo sapiens) | item: COCCNC(=O)c1ccc(C(=O)N2CCC(N3CCCC(C)C3)CC2)cc1 (stereo not shown) [Example 36]
6.32

Determine reported pIC50 for CC1CCCN(C2CCN(C(=O)c3ccc(C(C)(C)C)cc3O)CC2)C1 (stereo not shown) [Example 12] ; test system: human α2C receptor (Homo sapiens).
7.06
